targetDesc: mushroom tyrosinase
assayMethodText: Mushroom tyrosinase DO activity inhibition (dopachrome formation at 475 nm, L-DOPA substrate)
Format: biochemical
experimentalParameters: 10 min pre-incubation, L-DOPA 1 mM, tyrosinase 20 U/mL, pH 6.8

[
  {
    "molecule": "COC(=O)/C=C/c1ccc(O)c(O)c1 [CAME, caffeic acid methyl ester, reference compound]",
    "IC50, µM": 155
  }
]
